Please provide measured emission maximum for the entries that follow.
EXPERIMENTAL PROTOCOL: solvent given as SMILES
RUN PARAMETERS: in ClC(Cl)Cl
Express it in nm; write the number only.

Look up emission maximum: CCCCCCCCC1(CCCCCCCC)c2cc(C=O)ccc2-c2ccc(/C=C/c3ccc(N(c4ccccc4)c4ccccc4)cc3)cc21
459

What do you have for CC(C)(C)C1Nc2ccccc2C(=O)N1Cc1ccccc1 (stereo not given) ?
404

// same read-out, input: COc1ccccc1-c1cc2c(o1)=CC1=Cc3cc4oc(-c5ccccc5OC)cc4n3[B-](F)(F)[N+]=21
680

Lookup CCc1ccc(-c2nc(-c3ccc(-n4c5ccccc5c5ccccc54)cc3)cc(-c3ccc(-n4c5ccccc5c5ccccc54)cc3)n2)cc1
435

Similarly, N#CC(C#N)=Cc1ccc(-c2ccc(N(c3ccccc3)c3ccccc3)cc2)cc1 ?
634

// repeat for Cc1cc(C)c(C2=C3C=CC=[N+]3[B-]3(F)Oc4cc(O)cc5c6ccc(C)cc6c6cc2n3c6c45)c(C)c1 (stereo not given) and report
649

Request: C(#Cc1ccc(-n2c3ccccc3c3ccccc32)cc1)c1ccccc1
379

Query CC1(C)C(/C=C2\C(=O)C(/C=C3\Nc4ccccc4C3(C)C)=C2[O-])=[NH+]c2ccccc21 next
670

Can you check CCCCCCCCN1c2ccc(C#Cc3ccc(F)cc3)cc2Sc2cc(C=O)ccc21 next?
539

Next record, please: CCOC(=O)C1(O)c2cc3ccc4cccc5ccc(c2C(=O)N1C(C)(C)C)c3c45 (stereo not given)
387

Repeat with Cc1cccc(C2=Cc3c4ccccc4c4ccccc4[n+]3[B-](F)(F)O2)c1
447

Here is the next molecule: CCCCCCCCOc1ccc(-c2c3c4n(c(-c5ccc(OCCCCCCCC)cc5)c3c3n2[B-](F)(F)[n+]2c(ccc5cc(C(C)(C)C)ccc52)C=3C#N)[B-](F)(F)[n+]2c(ccc3cc(C(C)(C)C)ccc32)C=4C#N)cc1
773

Follow-up entry: COc1ccc(-c2nc(C)cc(-c3ccc(-n4c5ccccc5c5ccccc54)cc3)n2)cc1
421

Note, next up: CCCCC1(c2ccccc2)Nc2c(-c3ccc(N(C)C)cc3)ccc(-c3ccc(N(C)C)cc3)c2N=C1c1ccccc1 (stereo not given)
561

Try CCCCc1ccc(-n2c3c4cc(F)ccc4nc(-c4ccc(OC)cc4)c3c3c2c2c(-c4ccc(OC)cc4)nc4ccc(F)cc4c2n3-c2ccc(CCCC)cc2)cc1 next.
527

Next up: COc1ccc(/C=N/c2cc(C(C)C)c(O)cc2C)cc1
413

// next record CCCCn1c2ccccc2c2ccc3c4cc(-c5cccc(F)c5)ccc4n(CCCC)c3c21
398

Note, next up: COc1ccc(-c2oc3cccc4c5c(-c6ccc(OC)c(OC)c6)c(=N)oc6cccc(c2c34)c65)cc1OC
510

Same thing, different molecule: O=C1CC(c2ccc(C(F)(F)F)cc2)c2c(c3ccccc3c3nc4ccccc4nc23)O1 (stereo not given)
433

Now give it for O=C1/C(=C\c2ccc(N(c3ccccc3)c3ccccc3)cc2)S(=O)(=O)c2ccccc21 too.
626
